- System under test: human TGR5 (Homo sapiens)
- Construct: expressed in transfected cells; host or cells: HEK293
- Sequence (Q8TDU6 whole entry): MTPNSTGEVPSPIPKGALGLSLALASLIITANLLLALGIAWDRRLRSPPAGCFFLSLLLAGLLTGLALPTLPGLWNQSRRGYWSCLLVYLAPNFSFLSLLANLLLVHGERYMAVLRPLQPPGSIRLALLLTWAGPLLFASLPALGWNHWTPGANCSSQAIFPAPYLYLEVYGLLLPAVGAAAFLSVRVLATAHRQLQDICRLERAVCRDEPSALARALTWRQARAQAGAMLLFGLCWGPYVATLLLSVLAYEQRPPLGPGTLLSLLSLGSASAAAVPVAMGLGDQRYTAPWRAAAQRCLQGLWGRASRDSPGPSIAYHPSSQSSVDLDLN
- Procedure text: Cell-based TGR5 assay (cAMP generation, HTRF)
- Applied conditions: HEK293 cells stably transfected with human TGR5; cAMP by HTRF; 30 minutes at 37° C.; read-out: pEC50 Human TGR5 (converted)
Counter-ions that a name gives are not always drawn.
Exercise: for every item that follows, state its recorded EC50.

Example entries and their recorded answers appear below.
COCCCN(C[C@H](O)[C@@H](O)[C@H](O)[C@H](O)CO)C(=O)CCCCc1cc(Cl)c(COC2(c3cnccc3-c3ccccc3OC3CC3)CC2)cc1Cl: 126 to 1000 nM
O=C(NCCOCC[S+]([O-])c1ccc(Cl)c(COC2(c3cnccc3-c3ccccc3OC3CC3)CC2)c1)N[C@@H](CO)[C@@H](O)[C@H](O)[C@H](O)CO (stereo partly drawn): < 100 nM
CCCN(CCCCc1cc(Cl)c(COC2(c3cnccc3-c3ccccc3OC3CC3)CC2)cc1Cl)C(=O)[C@@H](O)[C@@H](O)[C@H](O)[C@@H](O)CO: < 100 nM
O=C(CCCCc1ccc(Cl)c(CNC2(c3cnccc3-c3ccccc3OC3CC3)CC2)c1)NC[C@H](O)[C@@H](O)[C@H](O)[C@H](O)CO (stereo in doubt): < 100 nM
CN(CCCCNC(=O)NCCCCN(C)S(=O)(=O)c1ccc(Cl)c(COC2(c3cnccc3-c3ccccc3OC3CC3)CC2)c1)S(=O)(=O)c1ccc(Cl)c(COC2(c3cnccc3-c3ccccc3OC3CC3)CC2)c1: 126 to 1000 nM

Fill in EC50 for each of the 5 molecules listed.
1. O=C(NC[C@H](O)[C@@H](O)[C@H](O)[C@H](O)CO)N[C@@H](CCCCNS(=O)(=O)c1ccc(COC2(c3cnccc3-c3ccccc3OC3CC3)CC2)c(Cl)c1)C(=O)O
2. CN(C[C@H](O)[C@@H](O)[C@H](O)[C@H](O)CO)C(=O)CCCS(=O)(=O)c1ccc(Cl)c(CNC2(c3cnccc3-c3ccccc3OC3CC3)CC2)c1
3. O=C(C1CCOCC1)N(CCCCc1cc(Cl)c(COC2(c3cnccc3-c3ccccc3OC3CC3)CC2)cc1Cl)C[C@H](O)[C@@H](O)[C@H](O)[C@H](O)CO
4. Cc1ccc(SCCCC(=O)N(C)C[C@H](O)[C@@H](O)[C@H](O)[C@H](O)CO)nc1CNC1(c2cnccc2-c2ccccc2OC2CC2)CC1
5. O=C(O)CN1CCN(C(=O)CCCCc2cc(Cl)c(COC3(c4cnccc4-c4ccccc4OC4CC4)CC3)cc2Cl)CC1

< 100 nM
< 100 nM
< 100 nM
1260 to 10000 nM
< 100 nM

Please give EC50 for each item listed below.
1. O=C(NCCCCCc1cc(Cl)c(CNC2(c3cnccc3-c3ccccc3OC3CC3)CC2)cc1Cl)NC[C@H](O)[C@@H](O)[C@H](O)[C@H](O)CO [Compound I-60, hydrochloride]
2. CC(CCCC(=O)NC[C@H](O)[C@@H](O)[C@H](O)[C@H](O)CO)c1cc(Cl)c(CNC2(c3cnccc3-c3ccccc3OC3CC3)CC2)cc1Cl (stereo partly drawn)
3. COCCN(CCCCc1cc(Cl)c(COC2(c3cnccc3-c3ccccc3OC3CC3)CC2)cc1Cl)C(=O)[C@@H](O)[C@@H](O)[C@H](O)[C@@H](O)CO
4. O=C(O)CCCC(=O)N(CCCCc1cc(Cl)c(COC2(c3cnccc3-c3ccccc3OC3CC3)CC2)cc1Cl)C[C@H](O)[C@@H](O)[C@H](O)[C@H](O)CO

1. < 100 nM
2. < 100 nM
3. < 100 nM
4. < 100 nM

Which EC50 value is on record for CC(C)N(CCCCNC(=O)N[C@@H](CO)[C@@H](O)[C@H](O)[C@H](O)CO)S(=O)(=O)c1ccc(Cl)c(CNC(C)(C)c2cnccc2-c2ccccc2OC2CC2)c1 ?
< 100 nM
